Tested on: MS2 coat protein
Assay: apparent KD of MS2 coat protein; higher = weaker reporter binding
Conditions: Eterna round: R107; input ligand: arginine 13.2 mM

INPUT_SEQUENCE | STUDY_SYSTEM | apparent KD of MS2 coat protein
GUUAUAGACGGAAGGAGCGCGACCACAUGAGGAUCACCCAUGUAUUGUGUUGGUAAUAGGUCGCAGGUAGGUCGCCGGUUAAUGA [#04 Same State - Arginine B] | MS2 coat protein | 27.1 nM
GAGUAGAGGACGGCCGCCACUGAACAUGAGGAUCACCCAUGUCGUGAUCCGUUGCCUGAAGAAGAUAGGACCGGGUCAUGUGCUC [Exclusion Tryptophan B GF 20] | MS2 coat protein | 40.4 nM
GACCGAUUAUAGCACGAUUGUCUUGUGGAAGGAGCGCAGAGGGCUGCAGGUAGGUCGCCACAUGAGGAUCACCCAUGUCAGGAUA [Raanti] | MS2 coat protein | 4.57 nM
AGAUGUAGCGGAAGGAGCGUCAUGAGGAUCACCCAUGACUCCCGUUGUGGGAGUUCCUUAGGUCAGGUAGGUCGCCGUUACGUCA [Omei Arg B SS B v5] | MS2 coat protein | 91.4 nM
GGGCCCGUAAGCAGGCCCACAGCGGGUGAUACCAGCAAUAAAACUUGCCCUUGGCAGCACACAGCUACAUGAGGAUCACCCAUGU [Mausdi] | MS2 coat protein | 24.3 nM
AAUACCGGAUCGGCCGCCACUGGUUGGCCCUGUGUACAUGAGGAUCACCCAUGUCCAUCCCAAGCCAGGACCGGGAUCUUUGUGU [Bedice] | MS2 coat protein | 17.1 nM

---

Tested on: MS2 coat protein
Assay: apparent KD of MS2 coat protein; designed switch direction (-1 OFF switch, 1 ON switch): -1; higher = weaker reporter binding
Conditions: input ligand: none
Assign Y to entries whose apparent KD of MS2 coat protein meets or exceeds 20 nM; assign N to the rest.

INPUT_SEQUENCE | STUDY_SYSTEM | GROUP_LABEL
CAGCGAACAGGAUAUACAUGAGGAUCACCCAUGUGUUCCAGCUAGGAAACUAGCAAAUGUAGAAGGGUUCGCUG [Mat - Exclusion 3 - JL Mod - D2] (Eterna round: R97, puzzle: Exclusion 3) | MS2 coat protein | Y
CGAUAAAAGACAGGAUAUGAGGAGAGAGAGAGAUCAGAAGGGUCACAUGAGGAUCACCCAUGUGAGUUCUCGAAAGGAAAGAGG [Prohibition 51 - Jieux - Exclusion NG 1] (Eterna round: R96, puzzle: Exclusion NG 1) | MS2 coat protein | Y
CGGAUGUAAGGAUAUUAGUAGUAGUCAGAAUAGACUAUUACUGAGAAGGUACAUGAGGAUCACCCAUGUUUCCG [Eli x4 4.18] (Eterna round: R97, puzzle: Exclusion 4) | MS2 coat protein | N
AAUCGGUGAGGAUAUCUAUUGCGGGAGGAAAUUCGCGAAACGGAGAAGGCACAUGAGGAUCACCCAUGUGAAUC [EX4 C.18] (Eterna round: R97, puzzle: Exclusion 4) | MS2 coat protein | N
UAGUUCUGAGGAUAUUCUCCAAAGCACAUGAGGAUCACCCAUGUCCAGUUAUGGCUUUCUGAAGAAGGCAGUCUUA [Eternabot (L2) Solution 49] (Eterna round: R97, puzzle: Exclusion 5) | MS2 coat protein | Y
GAUACACGUUCAGGAUAUCGCGCCCAAUUACACCUCUUCCGACGGACAUGAGGAUCACCCAUGUGCGAGAAGGGAACCAAAACU [Orquonbedi] (Eterna round: R96, puzzle: Exclusion NG 2) | MS2 coat protein | N
UUCCAUUCAGGAUAUCGAUGGAAUCACAUGAGGAUCACCCAUGUGAUACCUAGGUGACCGCGAGAAGGGAAAGGGU [EX5 B.7] (Eterna round: R97, puzzle: Exclusion 5) | MS2 coat protein | N
ACAAGCUUUGUUGUGGGUGACAUGAGGAUCACCCAUGUUUGCCACGUCUUGUGGGCCCGGGCCCGCGGCCCGGGCCC [-42.9, -63.9, A 13%] (Eterna round: R97, puzzle: Sensor, turn-off variant 1) | MS2 coat protein | Y
GCACGGAUGGUAGGAUAUCAGUGCGAUUAGCUCUGAGAAGGACCACAUGAGGAUCACCCAUGUACCUCAAUUAUCCUUCCGUGC [Eli exng1 - 022] (Eterna round: R96, puzzle: Exclusion NG 1) | MS2 coat protein | N
